The values you see were collected from PubChem BioAssay AID2060890.

Tested on: LG0703-F948-PDC complex spheroid viability;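 also: spheroids exposed to agents for 7 days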
Test: Anticancer human tumor LG0703-F948-PDC patient-derived lung adenocarcinoma cell line growth inhibition [RAS]
Conditions: curve of first compound; second compound 0.1 µM
Measured IC50, listed per entry for reference.

| MOLECULE | IC50 |
| --- | --- |
| CC(=O)OC12COC1CC(O)C1(C)C(=O)C(O)C3=C(C)C(OC(=O)C(O)C(NC(=O)OC(C)(C)C)c4ccccc4)CC(O)(C(OC(=O)c4ccccc4)C21)C3(C)C (configuration not stated) + C=CC(=O)N1CCN(c2nc(OCC3CCCN3C)nc3c(F)c(-c4nc(N)cc(C)c4C(F)(F)F)c(Cl)cc23)C(C)C1 | < 31.6 nM |

Here's the next entry for you.
INPUT: Entry C=CC(=O)N1CCN(c2nc(OCC3CCCN3C)nc3c(F)c(-c4nc(N)cc(C)c4C(F)(F)F)c(Cl)cc23)C(C)C1 (configuration not stated) + C#Cc1c(F)ccc2cc(O)cc(-c3ncc4c(N5CC6CCC(C5)N6)nc(OCC56CCCN5CC(F)C6)nc4c3F)c12 : reported IC50 = ?
OUTPUT: > 1000 nM
